tested on: UACC-62 melanoma; assay: NCI tumour cell line growth inhibition, 48 h
Would you kindly list TGI for each of these compounds?
Could you give me the number in µM? Just the number is fine.

Item: CCOC(=O)C1OC(C2(C)OC3(OC4(C=CC3O)OC(C(C)C(=O)C(C)C(O)C(C)CC(C)c3c(Cl)cc(C)c(O)c3C(=O)O)C(C)CC4C)C(C)C2OC)CC1O (stereo not given) | TGI: 1.25

The compound listed as O=C(NP(=O)(N1CC1)N1CC1)c1cc(I)ccc1I shows TGI equal to 57.6

Reported TGI of CC(=O)OC(CCC1(C)OC1COc1ccc(CCNC(=O)c2ccccc2)cc1)C(C)(C)OC(C)=O (stereo not given) : 31.4

Per the record, COc1cc2c(cc1Nc1nc(Nc3ccsc3C(N)=O)c3cc[nH]c3n1)N(C(=O)CN(C)C)CCC2(C)C has TGI of 5.44

So, CCCCCCCCCCCCCC[n+]1ccc2c(C)c3c(c(C)c2c1)c1cc(O)ccc1n3CC ? Its TGI was 1.87

Field TGI (entry Cc1cc(C)nc(NS(=O)(=O)c2ccc(Nc3c4ccc(Cl)cc4nc4c(C(=O)Nc5ccc(S(N)(=O)=O)cc5)cccc34)cc2)n1 ) reads 76.6

Record CSc1c(C#N)c(N)nc2c(N=Nc3ccc(Cl)cc3)c(N)nn12 , field TGI: 8.77

Looking up Nc1nc(-c2ccccc2)nc(N)c1N=O , I see its TGI listed as 14
